target: Dihydroorotate dehydrogenase (quinone), mitochondrial (Plasmodium falciparum (isolate 3D7)); assay: DHODH Inhibition Assay; conditions: pH 8; 25 °C
Sequence (Q08210 whole entry): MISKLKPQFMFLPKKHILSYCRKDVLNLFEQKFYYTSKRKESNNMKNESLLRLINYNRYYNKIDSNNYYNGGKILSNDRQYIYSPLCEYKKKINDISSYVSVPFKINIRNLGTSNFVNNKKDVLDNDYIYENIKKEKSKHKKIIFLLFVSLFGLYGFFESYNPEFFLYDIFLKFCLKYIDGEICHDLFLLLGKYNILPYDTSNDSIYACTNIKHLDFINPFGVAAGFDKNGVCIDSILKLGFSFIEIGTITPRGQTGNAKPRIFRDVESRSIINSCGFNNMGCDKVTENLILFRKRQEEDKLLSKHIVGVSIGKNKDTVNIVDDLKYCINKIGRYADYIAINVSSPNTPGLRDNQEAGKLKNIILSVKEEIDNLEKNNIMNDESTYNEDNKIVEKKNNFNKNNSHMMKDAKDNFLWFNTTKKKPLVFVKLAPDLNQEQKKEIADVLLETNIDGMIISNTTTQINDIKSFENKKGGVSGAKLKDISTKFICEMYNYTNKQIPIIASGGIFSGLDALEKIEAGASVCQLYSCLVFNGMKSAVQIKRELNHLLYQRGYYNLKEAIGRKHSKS
pIC50: −log10 of the molar value.
Quick reference for pIC50 among some compounds
MEASUREMENT TYPE: pIC50

>>> df
                                   compound  measurement_type  observed
0     CN(C(=O)c1ccc2ccccc2c1)c1ccccc1C(=O)O             pIC50    < 3.70
1  O=C(Nc1ccccc1C(=O)O)c1ccc2ccccc2c1 [2-(naphthalene-2-amido)benzoic acid]             pIC50    < 3.70

These data points were gathered from BindingDB's records for doi:10.1016/j.bmcl.2005.09.045.
